The values you see were collected from patent US9694072B2.

Would you kindly list IC50 for each of these compounds?
Test system: NCI-H345 classical SCLC cells
Experiment: Cell growth/viability assay (Alamar Blue)
Conditions: Homo sapiens, NCI-H345, read-out: IC50, cell viability
Structures can show the parent of a compound that is named as a salt.

# count of solved cases: 2
1) CC(C(O)c1ccc(O)cc1)N1CCC(Cc2ccccc2)CC1 (stereo not drawn): 150 to 200 µM
2) C[C@]12N[C@H](Cc3ccccc31)c1ccccc12 [MK-801, dizocilpine maleate]: ~200 µM

Now look at this one.
I would be grateful if you could share the reported IC50 for CC12CC3CC(C)(C1)CC(N)(C3)C2 [memantine] .
80 to 100 µM

----------
Tested on: DMS-53 cells
Test: Cell growth/viability assay (Alamar Blue)
Type: cell-based, human
Conditions: Homo sapiens, DMS-53, 48 h, read-out: IC50, cell viability
Where a name gives a salt, the structure may show the parent alone.
measuredProperty: IC50

Which IC50 is reported for this compound? C[C@]12N[C@H](Cc3ccccc31)c1ccccc12 [MK-801, dizocilpine maleate]
> 800 µM

----------
Tested on: NCI-H146 cells
Assay: Cell growth/viability assay (Alamar Blue)
Format: cell-based, human
Conditions: Homo sapiens; NCI-H146, at 48 hours; read-out: IC50, cell viability
measuredProperty: pIC50
Answers are plain numbers, as −log10 of the molar value.

What does the record list as pIC50 for CC12CC3CC(C)(C1)CC(N)(C3)C2 [memantine] ?
3.40

----------
Tested on: NCI-H345 classical SCLC cells
Assay: Cell growth/viability assay (Alamar Blue)
Conditions: Homo sapiens, NCI-H345, 48 h, read-out: IC50, cell viability
pIC50: −log10 of the molar value. Structures can show the parent of a compound that is named as a salt.
I'd appreciate it if you could supply pIC50 values for the items below.

1) CC(C(O)c1ccc(O)cc1)N1CCC(Cc2ccccc2)CC1 (stereo not drawn): ~3.82
2) CC12CC3CC(C)(C1)CC(N)(C3)C2 [memantine]: 3.89 to 4.10

Read the next record carefully.
I'd like to know its pIC50. The compound in question is C[C@]12N[C@H](Cc3ccccc31)c1ccccc12 [MK-801, dizocilpine maleate]
3.52
